Can you tell me T/C for the items I'm about to list?
# Test system: BDF1 mice, P388 leukemia ip, median survival T/C
# Protocol description: NCI In Vivo Anticancer Drug Screen. Data for tumor model P388 Leukemia (intraperitoneal) in B6D2F1 (BDF1) mice
# Test context: endpoint: median survival time; dose: 25.0 mg/kg/injection; schedule: Q01DX009 (ip); vehicle: water; higher = longer survival
Inconclusive results and toxic doses are left out.

Some compounds with recorded T/C:
Exercise: Give the reported value of T/C for this record: Cc1cc(C)c(C)[nH]1
Solution: 103 % of control

Exercise: Give the reported value of T/C for this record: COc1cc2cc3c4cc(OC)c(OC)cc4cc[n+]3c(C)c2cc1OC
Solution: 195 % of control

More entries:
Exercise: Give the reported value of T/C for this record: C/C(CC(=O)O)=C(\C)C(=O)O
Solution: 100 % of control

====

# System: BDF1 mice, P388 leukemia ip, median survival T/C
# Protocol description: NCI In Vivo Anticancer Drug Screen. Data for tumor model P388 Leukemia (intraperitoneal) in B6D2F1 (BDF1) mice
# Test context: endpoint: median survival time; dose: 100.0 mg/kg/injection; schedule: Q01DX009 (ip); vehicle: Klucel (hydroxypropylcellulose) (HPC); higher = longer survival
Inconclusive results and toxic doses are left out.
Can you tell me T/C for the items I'm about to list?

Some compounds with recorded T/C:
Exercise: Give the reported value of T/C for this record: Cc1ccc(N=Cc2ccccc2)cc1
Solution: 95 % of control

Exercise: Give the reported value of T/C for this record: COC(C)C(O)(C(N)=O)C(C)C (stereo unspecified)
Solution: 95 % of control

Exercise: Give the reported value of T/C for this record: O=S1(=O)CCN(C2CCCC2)CC1
Solution: 121 % of control

Exercise: Give the reported value of T/C for this record: Cc1ccc(S(=O)(=O)OCC(CO)(COS(=O)(=O)c2ccc(C)cc2)[N+](=O)[O-])cc1
Solution: 100 % of control

Exercise: Give the reported value of T/C for this record: C[C@H]1CC2=CC(=O)CC[C@]2(C)[C@H]2CC[C@@]3(C)[C@@H](CC[C@]3(C)O)[C@H]12
Solution: 100 % of control

More entries:
Exercise: Give the reported value of T/C for this record: OC(CNc1ccc(Cl)cc1)COc1ccc(Cl)cc1Cl (stereo unspecified)
Solution: 101 % of control

====

# Test system: BDF1 mice, P388 leukemia ip, median survival T/C
# Protocol description: NCI In Vivo Anticancer Drug Screen. Data for tumor model P388 Leukemia (intraperitoneal) in B6D2F1 (BDF1) mice
# Test context: endpoint: median survival time; dose: 400.0 mg/kg/injection; schedule: Q01DX009 (ip); vehicle: saline with Tween-80; higher = longer survival
Inconclusive results and toxic doses are left out.
Can you tell me T/C for the items I'm about to list?

# batch size: 6; output T/C per entry
1. COc1cc2cc3c4cc(OC)c(OC)cc4cc[n+]3c(C)c2cc1OC
2. CN(C(=O)/C=C/C(=O)O)c1ccccc1
3. CC(=O)N1C(=O)NC(=O)C1(C)c1ccc(Cl)s1 (configuration not stated)
4. N#CCC(NC(=O)OCc1ccccc1)C(=O)OCc1ccccc1 (configuration not stated)
5. COC1CC(O)C(O)C(C)O1 (configuration not stated)
6. NC(=O)Oc1ccccc1

Solution:
1. 181 % of control
2. 100 % of control
3. 106 % of control
4. 96 % of control
5. 95 % of control
6. 86 % of control

Exercise: Give the reported value of T/C for this record: COc1ccc2c(c1)C(=O)CC=C(C(=O)O)N2
Solution: 116 % of control

====

# Test system: BDF1 mice, P388 leukemia ip, median survival T/C
# Protocol description: NCI In Vivo Anticancer Drug Screen. Data for tumor model P388 Leukemia (intraperitoneal) in B6D2F1 (BDF1) mice
# Test context: endpoint: median survival time; dose: 60.0 mg/kg/injection; schedule: Q01DX009 (ip); vehicle: saline with Tween-80; higher = longer survival
Toxic doses and inconclusive results are not listed.
Can you tell me T/C for the items I'm about to list?

Some molecules with recorded T/C:
Exercise: Give the reported value of T/C for this record: CCCCCCCCCCCCCCSC(CC(=O)O)C(=O)O (stereo not given)
Solution: 94 % of control

Exercise: Give the reported value of T/C for this record: Cc1ccc(NC2=CC(=O)C(=O)C=C2Nc2ccc(C)cc2)cc1
Solution: 100 % of control

Exercise: Give the reported value of T/C for this record: O=[N+]([O-])c1ccc(N2CCCCCC2)c2c1no[n+]2[O-]
Solution: 95 % of control

Exercise: Give the reported value of T/C for this record: O=[N+]([O-])c1ccc(Sc2ccc(Cl)cc2)c2c1no[n+]2[O-]
Solution: 112 % of control

# evaluate next
Exercise: Give the reported value of T/C for this record: O=[N+]([O-])c1ccc(N2CCCCC2)c2c1no[n+]2[O-]
Solution: 95 % of control

====

# Test system: BDF1 mice, P388 leukemia ip, median survival T/C
# Protocol description: NCI In Vivo Anticancer Drug Screen. Data for tumor model P388 Leukemia (intraperitoneal) in B6D2F1 (BDF1) mice
# Test context: endpoint: median survival time; dose: 25.0 mg/kg/injection; schedule: Q01DX009 (ip); vehicle: water
Toxic doses and inconclusive results are not listed. Rule for the calls: active = survival T/C of 150% or more; inactive = T/C below 125% in these data.
Pick from true (active), false (inactive) when you respond.

# example entries with known answers
Exercise: Given FC(Cl)(Cl)c1nc2nc(Cl)c(Cl)nc2[nH]1 , state the outcome it received in this test.
Solution: false

Exercise: Given O=P1(NCCCl)OCCCN1CCCl (configuration not stated) , state the outcome it received in this test.
Solution: true

Exercise: Given CSc1ncc2cnccn12 , state the outcome it received in this test.
Solution: false

Exercise: Given COc1cccc2c1C(=O)c1c(O)c(COC3CC(N)C(O)C(C)O3)cc(O)c1C2=O (configuration not stated) , state the outcome it received in this test.
Solution: false

Exercise: Given COc1cc2c[n+](C)c3c4cc(OC)c(OC)cc4ccc3c2cc1OC , state the outcome it received in this test.
Solution: false

More entries:
Exercise: Given C=C(C)C(=O)OCC1CO1 (configuration not stated) , state the outcome it received in this test.
Solution: false

Exercise: Given O=c1cc(N=Nc2ccc(O)cc2)[nH]c(=O)[nH]1 , state the outcome it received in this test.
Solution: false

====

# System: BDF1 mice, P388 leukemia ip, median survival T/C
# Protocol description: NCI In Vivo Anticancer Drug Screen. Data for tumor model P388 Leukemia (intraperitoneal) in B6D2F1 (BDF1) mice
# Test context: endpoint: median survival time; dose: 50.0 mg/kg/injection; schedule: Q04DX003 (ip); vehicle: saline
Inconclusive results and toxic doses are left out. How the source made its calls: active means survival T/C of 150% or more; inactive means T/C below 125% in these data.
Pick from active, inactive when you respond.

# example entries with known answers
Exercise: Given CCOC(=O)C(C)(Br)C(=O)OCC , state the outcome it received in this test.
Solution: inactive

Exercise: Given C[N+](C)(C)C12CCCCCC1SC2 (configuration not stated) , state the outcome it received in this test.
Solution: inactive

Exercise: Given OCC1OC(n2cc(Cl)c3cncnc32)C(O)C1O (configuration not stated) , state the outcome it received in this test.
Solution: inactive

Exercise: Given c1nnc(NCNc2nncs2)s1 , state the outcome it received in this test.
Solution: active

Exercise: Given CC(=O)Nc1ccc(S(=O)(=O)F)cc1[N+](=O)[O-] , state the outcome it received in this test.
Solution: inactive

More entries:
Exercise: Given CCOC(=O)C(=O)N(Cc1cnc2nc(N)[nH]c(=O)c2n1)c1ccc(C(=O)NC(CCC(=O)O)C(=O)O)cc1 (configuration not stated) , state the outcome it received in this test.
Solution: inactive

====

# System: BDF1 mice, P388 leukemia ip, median survival T/C
# Protocol description: NCI In Vivo Anticancer Drug Screen. Data for tumor model P388 Leukemia (intraperitoneal) in B6D2F1 (BDF1) mice
# Test context: endpoint: median survival time; dose: 50.0 mg/kg/injection; schedule: Q01DX009 (ip); vehicle: saline with Tween-80; higher = longer survival
Inconclusive results and toxic doses are left out.
Observed property: T/C

Some compounds with recorded T/C:
Exercise: Answer briefly: T/C recorded on BDF1 mice, P388 leukemia ip, median survival T/C for CCCC1CC[N-]CC1.CCCC1CC[N-]CC1.[Cl][Pt+2]([Cl])([Cl])[Cl]
Solution: 110 % of control

Exercise: Answer briefly: T/C recorded on BDF1 mice, P388 leukemia ip, median survival T/C for O=c1[nH]c(Cl)nc2c(Cl)c(C(Cl)(Cl)Cl)nn12
Solution: 109 % of control

Exercise: Answer briefly: T/C recorded on BDF1 mice, P388 leukemia ip, median survival T/C for S=c1nc2[nH]c3ccccc3c2n[nH]1
Solution: 96 % of control

# batch size: 3; output T/C per entry
1. C[n+]1c(/C=N/NC(N)=S)ccc2ccccc21
2. O/N=c1/cc(-c2cccs2)ss1
3. C=Cc1c(C)c(O)cc2c1-c1ccc(O)c(C)c1CC2

Solution:
["106 % of control", "109 % of control", "100 % of control"]

# batch size: 6; output T/C per entry
1. CCCCN(CCCC)CC(O)c1cc(Cl)cc2c1-c1ccc(Cl)cc1C2 (configuration not stated)
2. N=C(N)SCCCCCCCCCCSC(=N)N
3. C=C(C)C(=O)NCCC(=O)Oc1ccc([N+](=O)[O-])cc1
4. COC(=O)/C=C1\Sc2ccc(C(F)(F)F)cc2NC1=O
5. Clc1ccc2c(c1)nnn2OC1CCCC1
6. Cc1ccc(Sc2ccccc2C(C)(C)O)cc1

Solution:
1: 105 % of control; 2: 123 % of control; 3: 95 % of control; 4: 91 % of control; 5: 97 % of control; 6: 101 % of control
